assay: Agonist activity at heteromeric G-protein in Wistar rat whole brain membranes after 30 mins by [35S]GTPgammaS binding assay; assay type: cell membranes, Membrane
Starred links: 1 amine or outer side, 2 acyl side, 3 side chain; linkers in the order of their positions; H or OH if unused. Positions of bridges follow the written chain, without caps; N, C: chain ends. Non-standard residues stand in square brackets, D forms with d. Residues, ends and D or L forms follow the SMILES beside them. Chains are numbered I, II in the order given. NHNH = N(N[*:2])[*:1]
# EC50 listing for each entry below
MEASURED_QUANTITY: EC50 (nM)

{"MOLECULE": "N[C@@H](Cc1ccc(O)cc1)C(=O)N[C@@H]1CSSC[C@@H](NC(=O)[C@@H](N)Cc2ccc(O)cc2)C(=O)NCC(=O)N[C@@H](Cc2ccccc2)C(=O)NNC(=O)[C@H](Cc2ccccc2)NC(=O)CNC1=O (I: H-Y[dC]GF / II: H-Y[dC]GF; disulfide I:2-II:2; linker I:C-II:C via NHNH)", "READOUT_UNIT": "nM", "EXPERIMENTAL_VALUE": 508}
{"MOLECULE": "N[C@@H](Cc1ccc(O)cc1)C(=O)N[C@@H]1CSCc2ccccc2CSC[C@@H](NC(=O)[C@@H](N)Cc2ccc(O)cc2)C(=O)NCC(=O)N[C@@H](Cc2ccccc2)C(=O)NNC(=O)[C@H](Cc2ccccc2)NC(=O)CNC1=O.O=C(O)C(F)(F)F.O=C(O)C(F)(F)F", "READOUT_UNIT": "nM", "EXPERIMENTAL_VALUE": 247}
{"MOLECULE": "N[C@@H](Cc1ccc(O)cc1)C(=O)N[C@@H]1CSCc2cccc(c2)CSC[C@@H](NC(=O)[C@@H](N)Cc2ccc(O)cc2)C(=O)NCC(=O)N[C@@H](Cc2ccccc2)C(=O)NNC(=O)[C@H](Cc2ccccc2)NC(=O)CNC1=O", "READOUT_UNIT": "nM", "EXPERIMENTAL_VALUE": 213}
{"MOLECULE": "N[C@@H](Cc1ccc(O)cc1)C(=O)N[C@@H]1CSCc2ccc(cc2)CSC[C@@H](NC(=O)[C@@H](N)Cc2ccc(O)cc2)C(=O)NCC(=O)N[C@@H](Cc2ccccc2)C(=O)NNC(=O)[C@H](Cc2ccccc2)NC(=O)CNC1=O", "READOUT_UNIT": "nM", "EXPERIMENTAL_VALUE": 87.4}
{"MOLECULE": "C[C@@H](NC(=O)[C@@H](N)Cc1ccc(O)cc1)C(=O)NCC(=O)N[C@@H](Cc1ccccc1)C(=O)NNC(=O)[C@H](Cc1ccccc1)NC(=O)CNC(=O)[C@@H](C)NC(=O)[C@@H](N)Cc1ccc(O)cc1 [BIPHALIN]", "READOUT_UNIT": "nM", "EXPERIMENTAL_VALUE": 75.4}

====

organism: Rattus norvegicus; experiment: Agonist activity at heteromeric G-protein in Wistar rat whole brain membranes after 30 mins by [35S]GTPgammaS binding assay; type: cell membranes; conditions: Membrane
Starred links: 1 amine or outer side, 2 acyl side, 3 side chain; linkers in the order of their positions; H or OH if unused. Positions of bridges follow the written chain, without caps; N, C: chain ends. Non-standard residues stand in square brackets, D forms with d. Residues, ends and D or L forms follow the SMILES beside them. Chains are numbered I, II in the order given. NHNH = N(N[*:2])[*:1]
# Emax listing for each entry below
MEASURED_QUANTITY: Emax (%)

{"COMPOUND": "C[C@@H](NC(=O)[C@@H](N)Cc1ccc(O)cc1)C(=O)NCC(=O)N[C@@H](Cc1ccccc1)C(=O)NNC(=O)[C@H](Cc1ccccc1)NC(=O)CNC(=O)[C@@H](C)NC(=O)[C@@H](N)Cc1ccc(O)cc1 [BIPHALIN]", "MEASURED_QUANTITY": "Emax", "READOUT_UNIT": "%", "EXPERIMENTAL_VALUE": 177}
{"COMPOUND": "N[C@@H](Cc1ccc(O)cc1)C(=O)N[C@@H]1CSCc2ccc(cc2)CSC[C@@H](NC(=O)[C@@H](N)Cc2ccc(O)cc2)C(=O)NCC(=O)N[C@@H](Cc2ccccc2)C(=O)NNC(=O)[C@H](Cc2ccccc2)NC(=O)CNC1=O", "MEASURED_QUANTITY": "Emax", "READOUT_UNIT": "%", "EXPERIMENTAL_VALUE": 150}
{"COMPOUND": "N[C@@H](Cc1ccc(O)cc1)C(=O)N[C@@H]1CSCc2ccccc2CSC[C@@H](NC(=O)[C@@H](N)Cc2ccc(O)cc2)C(=O)NCC(=O)N[C@@H](Cc2ccccc2)C(=O)NNC(=O)[C@H](Cc2ccccc2)NC(=O)CNC1=O.O=C(O)C(F)(F)F.O=C(O)C(F)(F)F", "MEASURED_QUANTITY": "Emax", "READOUT_UNIT": "%", "EXPERIMENTAL_VALUE": 137}
{"COMPOUND": "N[C@@H](Cc1ccc(O)cc1)C(=O)N[C@@H]1CSCc2cccc(c2)CSC[C@@H](NC(=O)[C@@H](N)Cc2ccc(O)cc2)C(=O)NCC(=O)N[C@@H](Cc2ccccc2)C(=O)NNC(=O)[C@H](Cc2ccccc2)NC(=O)CNC1=O", "MEASURED_QUANTITY": "Emax", "READOUT_UNIT": "%", "EXPERIMENTAL_VALUE": 160}
{"COMPOUND": "N[C@@H](Cc1ccc(O)cc1)C(=O)N[C@@H]1CSSC[C@@H](NC(=O)[C@@H](N)Cc2ccc(O)cc2)C(=O)NCC(=O)N[C@@H](Cc2ccccc2)C(=O)NNC(=O)[C@H](Cc2ccccc2)NC(=O)CNC1=O (I: H-Y[dC]GF / II: H-Y[dC]GF; disulfide I:2-II:2; linker I:C-II:C via NHNH)", "MEASURED_QUANTITY": "Emax", "READOUT_UNIT": "%", "EXPERIMENTAL_VALUE": 146}

====

# Ratio Ki listing for each entry below
species: Rattus norvegicus; experiment: Selectivity ratio of Ki for displacement of [3H]lleDelt2 from DOR in Wistar rat whole brain membranes to displacement of [3H]DAMGO from MOR in Wistar rat whole brain membranes; type: cell membranes
Starred links: 1 amine or outer side, 2 acyl side, 3 side chain; linkers in the order of their positions; H or OH if unused. Positions of bridges follow the written chain, without caps; N, C: chain ends. Non-standard residues stand in square brackets, D forms with d. Residues, ends and D or L forms follow the SMILES beside them. Chains are numbered I, II in the order given. NHNH = N(N[*:2])[*:1]
MEASURED_QUANTITY: Ratio Ki

{"COMPOUND": "N[C@@H](Cc1ccc(O)cc1)C(=O)N[C@@H]1CSCc2cccc(c2)CSC[C@@H](NC(=O)[C@@H](N)Cc2ccc(O)cc2)C(=O)NCC(=O)N[C@@H](Cc2ccccc2)C(=O)NNC(=O)[C@H](Cc2ccccc2)NC(=O)CNC1=O", "MEASURED_QUANTITY": "Ratio Ki", "EXPERIMENTAL_VALUE": 2.2}
{"COMPOUND": "N[C@@H](Cc1ccc(O)cc1)C(=O)N[C@@H]1CSCc2ccccc2CSC[C@@H](NC(=O)[C@@H](N)Cc2ccc(O)cc2)C(=O)NCC(=O)N[C@@H](Cc2ccccc2)C(=O)NNC(=O)[C@H](Cc2ccccc2)NC(=O)CNC1=O.O=C(O)C(F)(F)F.O=C(O)C(F)(F)F", "MEASURED_QUANTITY": "Ratio Ki", "EXPERIMENTAL_VALUE": 1.8}
{"COMPOUND": "N[C@@H](Cc1ccc(O)cc1)C(=O)N[C@@H]1CSSC[C@@H](NC(=O)[C@@H](N)Cc2ccc(O)cc2)C(=O)NCC(=O)N[C@@H](Cc2ccccc2)C(=O)NNC(=O)[C@H](Cc2ccccc2)NC(=O)CNC1=O (I: H-Y[dC]GF / II: H-Y[dC]GF; disulfide I:2-II:2; linker I:C-II:C via NHNH)", "MEASURED_QUANTITY": "Ratio Ki", "EXPERIMENTAL_VALUE": 0.9}
{"COMPOUND": "N[C@@H](Cc1ccc(O)cc1)C(=O)N[C@@H]1CSCc2ccc(cc2)CSC[C@@H](NC(=O)[C@@H](N)Cc2ccc(O)cc2)C(=O)NCC(=O)N[C@@H](Cc2ccccc2)C(=O)NNC(=O)[C@H](Cc2ccccc2)NC(=O)CNC1=O", "MEASURED_QUANTITY": "Ratio Ki", "EXPERIMENTAL_VALUE": 1.5}

====

molecular target: Delta-type opioid receptor (Rattus norvegicus, UniProt P33533); experiment: Displacement of [3H]lleDelt2 from DOR in Wistar rat whole brain membranes after 45 mins by liquid scintillation counting method
Sequence (P33533 whole entry): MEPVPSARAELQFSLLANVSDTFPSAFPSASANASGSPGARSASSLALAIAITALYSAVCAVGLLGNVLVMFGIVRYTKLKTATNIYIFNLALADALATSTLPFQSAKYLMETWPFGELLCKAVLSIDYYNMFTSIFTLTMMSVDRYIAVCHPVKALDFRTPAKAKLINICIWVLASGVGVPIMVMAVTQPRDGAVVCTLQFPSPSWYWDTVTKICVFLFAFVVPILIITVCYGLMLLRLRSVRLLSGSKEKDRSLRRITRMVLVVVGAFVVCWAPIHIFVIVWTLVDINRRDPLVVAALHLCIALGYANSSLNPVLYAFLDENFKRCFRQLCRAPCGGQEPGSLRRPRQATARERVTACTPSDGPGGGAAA
Starred links: 1 amine or outer side, 2 acyl side, 3 side chain; linkers in the order of their positions; H or OH if unused. Positions of bridges follow the written chain, without caps; N, C: chain ends. Non-standard residues stand in square brackets, D forms with d. Residues, ends and D or L forms follow the SMILES beside them. Chains are numbered I, II in the order given. NHNH = N(N[*:2])[*:1]
# Ki listing for each entry below

{"COMPOUND": "N[C@@H](Cc1ccc(O)cc1)C(=O)N[C@@H]1CSSC[C@@H](NC(=O)[C@@H](N)Cc2ccc(O)cc2)C(=O)NCC(=O)N[C@@H](Cc2ccccc2)C(=O)NNC(=O)[C@H](Cc2ccccc2)NC(=O)CNC1=O (I: H-Y[dC]GF / II: H-Y[dC]GF; disulfide I:2-II:2; linker I:C-II:C via NHNH)", "READOUT_UNIT": "nM", "Ki": 5.25}
{"COMPOUND": "C[C@@H](NC(=O)[C@@H](N)Cc1ccc(O)cc1)C(=O)NCC(=O)N[C@@H](Cc1ccccc1)C(=O)NNC(=O)[C@H](Cc1ccccc1)NC(=O)CNC(=O)[C@@H](C)NC(=O)[C@@H](N)Cc1ccc(O)cc1 [BIPHALIN]", "READOUT_UNIT": "nM", "Ki": 3.5}
{"COMPOUND": "N[C@@H](Cc1ccc(O)cc1)C(=O)N[C@@H]1CSCc2ccccc2CSC[C@@H](NC(=O)[C@@H](N)Cc2ccc(O)cc2)C(=O)NCC(=O)N[C@@H](Cc2ccccc2)C(=O)NNC(=O)[C@H](Cc2ccccc2)NC(=O)CNC1=O.O=C(O)C(F)(F)F.O=C(O)C(F)(F)F", "READOUT_UNIT": "nM", "Ki": 2.26}
{"COMPOUND": "N[C@@H](Cc1ccc(O)cc1)C(=O)N[C@@H]1CSCc2ccc(cc2)CSC[C@@H](NC(=O)[C@@H](N)Cc2ccc(O)cc2)C(=O)NCC(=O)N[C@@H](Cc2ccccc2)C(=O)NNC(=O)[C@H](Cc2ccccc2)NC(=O)CNC1=O", "READOUT_UNIT": "nM", "Ki": 2.52}
{"COMPOUND": "N[C@@H](Cc1ccc(O)cc1)C(=O)N[C@@H]1CSCc2cccc(c2)CSC[C@@H](NC(=O)[C@@H](N)Cc2ccc(O)cc2)C(=O)NCC(=O)N[C@@H](Cc2ccccc2)C(=O)NNC(=O)[C@H](Cc2ccccc2)NC(=O)CNC1=O", "READOUT_UNIT": "nM", "Ki": 3.81}
